Reported viability at 10 µM is given for each of the following compounds.
System: DG-75 Burkitt’s lymphoma cell line
Test: alamarBlue cell viability assay
Conditions: Homo sapiens, DG-75, 48 h, read-out: % Viable Cells Remaining DG-75, 10 µM, 48 h

>  <Compound>
O=[N+]([O-])CCc1c2ccccc2cc2ccccc12

>  <Measured Target>
DG-75 Burkitt’s lymphoma cell line

>  <viability at 10 µM>
> 85%

$$$$
>  <Compound>
CC(=CCc1c2ccccc2cc2ccccc12)[N+](=O)[O-] [Compound 20b, 9-(3-Nitrobut-2-en-1-yl)Anthracene]

>  <Measured Target>
DG-75 Burkitt’s lymphoma cell line

>  <viability at 10 µM>
79 to 97%

$$$$
>  <Compound>
c1ccc2c(-c3c[nH]nn3)c3ccccc3cc2c1 [Compound 30a, 4-(anthracen-9-yl)-1H-1,2,3-triazole]

>  <Measured Target>
DG-75 Burkitt’s lymphoma cell line

>  <viability at 10 µM>
> 90%

$$$$
